Each recorded value in this set is attributed to PubChem BioAssay (NCI).

- Test system: MCF7 breast
- PROCEDURE TEXT: NCI tumour cell line growth inhibition, 48 h; in the data active = GI50 below about 0.43 µM; inactive = the rest
Entry note: the call must match one of TRUE for active, FALSE for inactive

{"columns": ["MOLECULE", "DISCRETE LABEL"],
 "data": [
  ["Nc1nc(N(Cc2ccccc2)c2ccccc2)c2cn[nH]c2n1", "FALSE"],
  ["COc1ccc2c(c1)C(=O)c1c-2n(CCCn2ccnc2)c(=O)c2cc([N+](=O)[O-])ccc12", "TRUE"],
  ["CC/C=C\\C[C@@H](O)C/C=C1/C(=O)C=C[C@H]1C/C=C\\CCCC(=O)OC", "FALSE"],
  ["CCCCCCCC[C@@H](O)CC(=O)N[C@@H](CC(N)=O)C(=O)N[C@@H](CCC(N)=O)C(=O)N[C@@H](CC(=O)c1cc(C)cc(O)c1C(=O)c1c(O)cccc1O)CC(C)C", "FALSE"],
  ["C#CCNC(=O)c1cccc2c1cc(C)n2-c1nc2c(c(NCc3ccccc3)n1)CCCC2", "TRUE"]
]}

Entry `COc1cc2ncn(-c3cc(OCc4cccs4)c(C(N)=O)s3)c2cc1OC` : call = ?
FALSE
